test system: Pyricularia oryzae; experiment: microbe, parasite or virus in culture; assay type: cell-based; conditions: Pyricularia oryzae, 168 h, read-out: Observed efficacy
The entries below are paired with their reported inhibition of growth at 4 ppm.
Could you give me the number in %? Just the number is fine.

• N#Cc1nn(-c2c(Cl)cc(C(F)(F)F)cc2Cl)c(N)c1[S+]([O-])C(F)(F)F (stereo not shown) [II-20c, fipronil, reference compound] = 1
• Cc1ccc(-c2c(Cl)nc(C#N)n2S(=O)(=O)N(C)C)cc1 [II-12, cyazofamid, reference compound] = 9

Query: Param item = CCN(Cc1ccc(Cl)nc1)/C(=C/[N+](=O)[O-])NC ; retrieve measured inhibition of growth at 4 ppm.
Result: 1

Query: # repeat for CCOC(=O)C1CC(=O)C(=C(O)C2CC2)C(=O)C1 (stereo not shown) [II-3a, trinexapac-ethyl, reference compound]
Result: 5

Where do these numbers come from? They come from patent US20150313225A1.
